Parameter Measured: melting point

Completed entries (count: 5):
* CCCc1cccc(NC(=O)Nc2csc(-c3ccc(OC)cc3)n2)n1 [Example 45] | 223 to 225 °C
* O=C(Nc1cccc(NCCCN2CCOCC2)n1)Nc1csc(-c2ccncc2)n1 [Example 33] | 215 to 217 °C
* Cc1cc(C)nc(NC(=O)Nc2csc(-c3ccccn3)n2)c1 [Example 40] | 232 to 234 °C
* CCCc1cccc(NC(=O)Nc2csc(-c3ccnc(CC)c3)n2)n1 [Example 14] | 204 to 206 °C
* Cc1ccnc(NC(=O)Nc2csc(-c3ccccn3)n2)c1 [Example 42] | 217 to 219 °C

Here is another compound to look at.
-- ask Item under review: Cc1ccc2nc(NC(=O)Nc3csc(-c4ccccn4)n3)sc2c1 [Example 41] . Reported melting point?
-- reply 263 to 265 °C

---

# melting point per record follows

* COc1cccc(-c2nc(NC(=O)Nc3ccccn3)cs2)c1 [Example 48] | 201 to 203 °C

-- ask Any idea what its melting point is? The compound is Cc1ccc(NC(=O)Nc2csc(-c3ccccn3)n2)nc1 [Example 38]
-- reply 228 to 230 °C

-- ask Field entry: CCCc1cccc(NC(=O)Nc2cccc(-c3ccncc3)c2)n1 [Example 54]
-- reply 195 to 198 °C

-- ask Proceed to O=C(Nc1ccccn1)Nc1csc(-c2ccccn2)n1 [Example 5]
-- reply 233 to 235 °C
